The values you see were collected from ChEMBL document CHEMBL4011636.

For each of the compounds below, state its EC50.
target entity: UniProt P28223
Sequence (P28223 whole entry): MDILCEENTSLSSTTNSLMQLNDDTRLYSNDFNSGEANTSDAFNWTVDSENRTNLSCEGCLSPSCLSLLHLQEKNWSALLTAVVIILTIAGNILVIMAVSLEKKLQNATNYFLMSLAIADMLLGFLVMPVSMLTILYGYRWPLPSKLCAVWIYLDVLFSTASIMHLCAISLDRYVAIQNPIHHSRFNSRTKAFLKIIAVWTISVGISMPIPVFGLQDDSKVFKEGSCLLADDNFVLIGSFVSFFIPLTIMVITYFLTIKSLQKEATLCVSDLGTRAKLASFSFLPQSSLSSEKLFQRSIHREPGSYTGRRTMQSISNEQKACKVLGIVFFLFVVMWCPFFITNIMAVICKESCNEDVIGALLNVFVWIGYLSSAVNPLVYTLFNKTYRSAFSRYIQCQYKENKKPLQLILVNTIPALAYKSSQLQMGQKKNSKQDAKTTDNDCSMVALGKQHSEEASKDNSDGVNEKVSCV
test description: Agonist activity at recombinant human 5-HT2A receptor expressed in HEK293E cells assessed as induction of intracellular Ca2+ levels after 90 secs by Fluo-4-dye based FLIPR assay

**Q:** Write down the reported EC50 (system: UniProt P28223) of Cn1cc(-c2cccc3ccccc23)cc1C(=O)N1CCC(CO)CC1
**A:** > 10 µM

**Q:** Write down the reported EC50 (system: UniProt P28223) of Cc1nc(-c2cccc3ccccc23)sc1C(N)=O
**A:** > 10 µM

**Q:** Write down the reported EC50 (system: UniProt P28223) of CCn1nc(-c2cccc3ccccc23)cc1-c1cncn1C
**A:** > 10 µM

**Q:** Write down the reported EC50 (system: UniProt P28223) of O=C(c1csc(-c2cccnc2)n1)N1CCOCC1
**A:** > 10 µM

**Q:** Write down the reported EC50 (system: UniProt P28223) of O=C(c1csc(-c2cccc(Cl)c2Cl)n1)N1CCCCC1
**A:** > 10 µM

**Q:** Write down the reported EC50 (system: UniProt P28223) of Cc1nc(-c2cccc3ccccc23)sc1C(=O)N1CCC(CO)CC1
**A:** > 10 µM

**Q:** Write down the reported EC50 (system: UniProt P28223) of Cc1sc(-c2cccc3ccccc23)cc1C(=O)N1CCC(CO)CC1
**A:** > 10 µM

**Q:** Write down the reported EC50 (system: UniProt P28223) of Cn1nc(-c2cccc3ccccc23)cc1-c1cccnn1
**A:** > 5 µM

**Q:** Write down the reported EC50 (system: UniProt P28223) of Cc1nn(-c2cccc3ccccc23)cc1C(=O)N1CCC(CO)CC1
**A:** > 10 µM

**Q:** Write down the reported EC50 (system: UniProt P28223) of COCCN(C)C(=O)c1sc(-c2cccc3ccccc23)nc1C
**A:** > 10 µM

**Q:** Write down the reported EC50 (system: UniProt P28223) of CCn1nc(-c2cccc3ccccc23)cc1-c1nnnn1C
**A:** 1.8 to 2.5 µM

**Q:** Write down the reported EC50 (system: UniProt P28223) of Cc1nc(-c2cccc3ccccc23)sc1C(=O)N(C)Cc1ccn(C)n1
**A:** > 10 µM

**Q:** Write down the reported EC50 (system: UniProt P28223) of CCn1nc(-c2nccc3ccccc23)cc1-c1cccnn1
**A:** > 10 µM

**Q:** Write down the reported EC50 (system: UniProt P28223) of Cc1nc(-c2cccc3ccccc23)sc1C(=O)N1CCCCC1
**A:** > 10 µM

**Q:** Write down the reported EC50 (system: UniProt P28223) of O=C(c1nc(-c2cccc(Cl)c2Cl)cs1)N1CCOCC1
**A:** > 10 µM

**Q:** Write down the reported EC50 (system: UniProt P28223) of Cc1nc(-c2cccc3ccccc23)sc1C(=O)N1CCNCC1
**A:** > 10 µM

**Q:** Write down the reported EC50 (system: UniProt P28223) of CCn1nc(-c2cccc3cnccc23)cc1-c1cccnn1
**A:** > 5 µM

**Q:** Write down the reported EC50 (system: UniProt P28223) of O=C(c1csc(-c2cccc(Cl)c2F)n1)N1CCOCC1
**A:** > 10 µM

**Q:** Write down the reported EC50 (system: UniProt P28223) of O=C(c1nc(-c2cccc3ccccc23)cs1)N1CCOCC1
**A:** > 10 µM

**Q:** Write down the reported EC50 (system: UniProt P28223) of Cn1nc(-c2cccc3ccccc23)cc1C(=O)N1CCC(CO)CC1
**A:** 0.075 µM

**Q:** Write down the reported EC50 (system: UniProt P28223) of Cc1cc(-c2cccc3ccccc23)oc1C(=O)N1CCC(CO)CC1
**A:** > 10 µM

**Q:** Write down the reported EC50 (system: UniProt P28223) of Cc1nc(-c2cccc3ccccc23)sc1C(=O)N(CCO)C(C)C
**A:** > 10 µM

**Q:** Write down the reported EC50 (system: UniProt P28223) of Cc1cccc(-c2nc(C(=O)N3CCOCC3)cs2)c1C
**A:** > 10 µM

**Q:** Write down the reported EC50 (system: UniProt P28223) of Cc1nc(-c2cccc3ccccc23)sc1C(=O)N1CCOCC1
**A:** > 10 µM
